The origin of these recorded values is ChEMBL document CHEMBL1201862.

- Tested on: SF-539
- Assay Summary: NCI tumour cell line growth inhibition, 48 h
The source made the active and inactive calls. Rule as the data show it: active = GI50 up to about 1.1 µM and inactive = higher.
// allowed return values: active, inactive

Please review the following examples before continuing.
[[record]]
compound = "Cn1c(=O)c(C#N)c(O)c2cc3ccccc3nc21"
group_label = "inactive"

[[record]]
compound = "CN(CCN1C(=O)c2cc([N+](=O)[O-])cc3cc([N+](=O)[O-])cc(c23)C1=O)CCN1C(=O)c2cc([N+](=O)[O-])cc3cc([N+](=O)[O-])cc(c23)C1=O"
group_label = "active"

[[record]]
compound = "COC(=O)CC(C(C(=O)OC)C(=O)OC)N1C(=O)OCC1c1ccccc1 (stereo unspecified)"
group_label = "inactive"

[[record]]
compound = "COc1ccc(-c2[nH]c(=O)n(C3OC(CO)C(O)C(O)C3O)c(=O)c2C#N)cc1 (stereo unspecified)"
group_label = "inactive"

[[record]]
compound = "COc1ccc(C(=O)C(c2ccc(OCc3ccccc3)cc2)c2ccc(OCc3ccccc3)cc2)cc1"
group_label = "inactive"


Next up:
I would be grateful if you could indicate the recorded call for O=C1CCN2C(=N1)Sc1ccccc12 .
inactive

###

- System: A498
- Assay Summary: NCI tumour cell line growth inhibition, 48 h
Activity calls are given as the source filed them. Rule as the data show it: active = GI50 up to about 1.1 µM and inactive = higher.
Give GI50 for every item shown.

Each compound below has a reported value. Please supply its GI50.
1. Cn1ncc2c(Cl)ncnc21
2. CC(C)(C)NCCC(O)c1cc(C(F)(F)F)nc2c(C(F)(F)F)cccc12 (centres undefined)
3. CC1=C(O)C(=O)C[C@]2(C)[C@H]3CC=C4[C@@H]5CC(C)(C)CC[C@@H]5C(=O)[C@H](O)[C@@]4(C)[C@]3(C)CC[C@@H]12
4. O=C1c2ccccc2C2(c3ccc(Cl)cc3)N[C@@H]3CCCC[C@@H]3N12 (some centres undefined)

> 100 µM (inactive)
15 µM (inactive)
> 50 µM (inactive)
> 100 µM (inactive)

Each compound below has a reported value. Please supply its GI50.
1. O=C(CC1(O)C(=O)Nc2c(Cl)ccc(Cl)c21)c1ccco1 (centres undefined)
2. CC(C)N1CC2CC(CN(C(=O)c3ccc(Cl)cc3)C2)C1
3. O=[N+]([O-])c1ccc(CSCc2ccc(Cl)cc2)cc1
4. C=CCN1C(=O)CNC1=S

1. 30.4 µM (inactive)
2. > 100 µM (inactive)
3. > 100 µM (inactive)
4. > 100 µM (inactive)

Each compound below has a reported value. Please supply its GI50.
1. O=S(=O)(c1ccc(-c2nnc(-c3ccc(F)cc3)o2)cc1)c1ccc(-c2nnc(-c3ccc(F)cc3)o2)cc1
2. CCOC(=O)C(=CNC(=S)Nc1c(CC)cccc1CC)C(=O)OCC
3. CC(CO)C1=CC(C#CCOCc2ccccc2)N(C(=O)Oc2ccccc2)c2ccccc21 (centres undefined)
4. COC(=O)CC(C(C(=O)OC)C(=O)OC)N1C(=O)OCC1c1ccccc1 (centres undefined)
5. COC(=O)C1C=CCON2CCc3c(n(S(=O)(=O)c4ccccc4)c4ccccc34)C12 (centres undefined)

1. 25.5 µM (inactive)
2. > 100 µM (inactive)
3. 4.59 µM (inactive)
4. > 100 µM (inactive)
5. > 100 µM (inactive)

Each compound below has a reported value. Please supply its GI50.
1. Nc1ncnc2c1ccn2C/C=C/CO
2. COP(=O)(OC)C(N)Cc1c[nH]c2ccccc12 (centres undefined)
3. CN1C(=O)C(C(=O)Nc2ccccn2)C2C[C@@]1(C)Oc1ccccc12 (some centres undefined)
4. CCOC(=O)C12CCCC1(O)N(NC(N)=O)C(C)=C2C(=O)OC (centres undefined)
5. C(=N\NC1=NCCN1)/c1ccc(-c2cn3cc(/C=N/NC4=NCCN4)ccc3n2)cc1
6. O=c1c2cc(Cl)ccc2sc2cccc(Cl)c12
7. COc1c(OC(C)C)cc2cc(O)c(C(=O)NC3Cc4ccc(c(Cl)n4)O[C@@H]4C=C5C#C/C(=C\C#CC6OC56C4OC4CC(C)(O)C(O)C(C)O4)C(OC4CC(O)C(N(C)C)C(C)O4)COC3=O)cc2c1OC (some centres undefined)
8. O=C(c1ccc(Cl)cc1)N(C(=S)OCCOc1ccccc1)c1ccccc1

1. > 100 µM (inactive)
2. > 100 µM (inactive)
3. 11.1 µM (inactive)
4. > 100 µM (inactive)
5. 40.3 µM (inactive)
6. > 100 µM (inactive)
7. > 36.3 µM (inactive)
8. 14.9 µM (inactive)

###

- Test system: NCI-H23
- Assay Summary: NCI tumour cell line growth inhibition, 48 h
Activity calls are given as the source filed them. Rule as the data show it: active = GI50 up to about 1.1 µM and inactive = higher.
Metric Name: GI50

Take a look at these entries with their results.
[[record]]
compound = "COc1ccc(/C=C2\\C(=O)Nc3ccccc32)cc1OC"
observed_result = "> 100 µM (inactive)"

[[record]]
compound = "Cc1[nH]c2ncn(Nc3ccccc3)c(=N)c2c1Cc1ccccc1"
observed_result = "31.8 µM (inactive)"

[[record]]
compound = "Cc1ccc(/N=N/C(C(=O)c2ccccc2)C(=O)c2ccccc2)cc1"
observed_result = "20.5 µM (inactive)"


Each compound below has a reported value. Please supply its GI50.
1. N#CC(C/C=C/c1ccccc1)NNC(=O)c1c(Cl)c(Cl)c(Cl)c(Cl)c1-c1nc2cc(C(=O)c3ccccc3)ccc2[nH]1 (stereo not given)
2. Nc1ncnc2c1ccn2C/C=C/CO

1. 17.9 µM (inactive)
2. > 100 µM (inactive)

###

- System: SF-539
- Assay Summary: NCI tumour cell line growth inhibition, 48 h
Calls of active or inactive are those of the source. No stated cut-off is given here; in the data, active = GI50 up to about 1.1 µM and inactive = higher.
// allowed return values: active, inactive

[[record]]
molecule = "COc1cc2c(cc1C)[n+]([O-])c(C)c(C(=O)C/C(=N/NC(=O)C[N+](C)(C)C)C(=O)Nc1cccc(Cl)c1C)[n+]2[O-]"
tested_on = "SF-539"
group_label = "inactive"

[[record]]
molecule = "Cc1ccc(OCC2OC(n3cnc4c(Cl)nc(N)nc43)CC2Oc2ccc(C)cc2)cc1 (stereo unspecified)"
tested_on = "SF-539"
group_label = "inactive"

[[record]]
molecule = "Cn1c2ccccc2c2c(-c3ccccc3)[n+]3ccccc3nc21"
tested_on = "SF-539"
group_label = "inactive"

[[record]]
molecule = "Cc1cc(=O)oc2c1cc1ccc3cccc4ccc2c1c34"
tested_on = "SF-539"
group_label = "inactive"


I would be grateful if you could indicate the recorded call for COC(=O)NCCc1n[nH]c2c1C(=O)C=C(OC)C2=O .
inactive

I would be grateful if you could indicate the recorded call for Cc1cc(Cc2c(F)c(F)c(C(c3cc(C)no3)c3c(F)c(F)c(F)c(F)c3F)c(F)c2F)on1 (stereo unspecified) .
inactive

I would be grateful if you could indicate the recorded call for CC(C)C(=O)/C=C/c1ccc(Cl)c(Cl)c1 .
inactive

I would be grateful if you could indicate the recorded call for O=c1oc2ccccc2[n+]([O-])c1-c1ccccc1 .
inactive

###

- Tested on: SNB-19
- Assay Summary: NCI tumour cell line growth inhibition, 48 h
The source made the active and inactive calls. Cut-off read from the data, not from the text of the source: active = GI50 up to about 1.1 µM and inactive = higher.
Metric Name: GI50

[[record]]
compound = "O=[N+]([O-])c1ccc(Cl)c(C2CC(c3cccc4ccccc34)=Nc3ccccc3S2)c1 (centres undefined)"
metric_name = "GI50"
observed_result = "44.4 µM (inactive)"

[[record]]
compound = "Cc1cc2c(cc1C)[n+]([O-])c(C(=O)CC(=O)C(=O)Nc1ccccc1C(C)C)c(C)[n+]2[O-]"
metric_name = "GI50"
observed_result = "> 100 µM (inactive)"

[[record]]
compound = "CCOC(=O)c1ccc(/N=C/c2ccc(N(CCC#N)S(=O)(=O)c3ccccc3)cc2C)cc1"
metric_name = "GI50"
observed_result = "> 100 µM (inactive)"

[[record]]
compound = "O=C(c1ccc(Cl)cc1)N(C(=S)N1CCN(c2ccccc2)CC1)C1CCCCC1"
metric_name = "GI50"
observed_result = "> 100 µM (inactive)"

[[record]]
compound = "C=C1OC(c2ccccc2NC)=NC12CCCCC2"
metric_name = "GI50"
observed_result = "> 100 µM (inactive)"

[[record]]
compound = "CCCCCCCC(=O)NC(C)(C)C(=O)NCC(=O)NC(CC(C)C)C(=O)NC(C)(C)C(=O)NCC(=O)NCC(=O)NC(CC(C)C)C(=O)NC(C)(C)C(=O)NCC(=O)NC(C(=O)NC(CO)CC(C)C)C(C)CC (centres undefined)"
metric_name = "GI50"
observed_result = "3.57 µM (inactive)"

[[record]]
compound = "COc1ccc(OCC(=N/NC(=O)c2ccncc2)/N=C/c2cccnc2)cc1"
metric_name = "GI50"
observed_result = "> 100 µM (inactive)"

[[record]]
compound = "Cc1c(C(=O)c2ccccc2)[n+]([O-])c2cc(Cl)c(Cl)cc2[n+]1[O-]"
metric_name = "GI50"
observed_result = "16.6 µM (inactive)"


Each compound below has a reported value. Please supply its GI50.
1. CC1(C2(C)OC(=O)c3ccccc32)OC(=O)c2ccccc21 (centres undefined)
2. O=C1CSC(/C=C/c2ccccc2)N1c1nc2cc3sc(N4C(=O)CSC4/C=C/c4ccccc4)nc3cc2s1 (centres undefined)
3. CN1CCC23c4c5ccc(Oc6nnnn6-c6ccccc6)c4OC2c2[nH]c4ccccc4c2CC3(O)C1C5 (centres undefined)
4. COc1c(Cl)c(Cl)c(OC)c2c1C(=O)C=CC2=O
5. O=C(CCCCCCCCC(=O)NN1C(=O)/C(=C\c2ccc(O)c(O)c2)SC1c1ccc(Cl)cc1)NN1C(=O)/C(=C\c2ccc(O)c(O)c2)SC1c1ccc(Cl)cc1 (centres undefined)
6. O=C1CCC(NC(=O)Cc2ccc(O)cc2)C(=O)N1 (centres undefined)
7. COC(=O)C1C=CCON2CCc3c(n(S(=O)(=O)c4ccccc4)c4ccccc34)C12 (centres undefined)
8. COc1ccc2cc3c4cc5c(cc4cc[n+]3cc2c1OC)OCO5

1: > 100 µM (inactive); 2: > 84.5 µM (inactive); 3: 7.66 µM (inactive); 4: 32.1 µM (inactive); 5: 16.9 µM (inactive); 6: > 2500 µM (inactive); 7: > 46.6 µM (inactive); 8: 3.15 µM (inactive)

Each compound below has a reported value. Please supply its GI50.
1. CN(C)CCNC(=O)c1cc2ccccc2c2nc3ccccc3nc12
2. O=C=NCCCCCCN1C(=O)N2C(c3ccccc3)N(CCCCCCN=C=O)C(=O)N2C1c1ccccc1 (centres undefined)
3. Clc1ccc(/C(=C\c2ccccc2)Cn2ccnc2)cc1

["1.43 µM (inactive)", "> 100 µM (inactive)", "21 µM (inactive)"]
